# assayed.system: human TYK2 (JH2domain-pseudokinase) (Homo sapiens (Human), UniProt P29597)
# Sequence (P29597 556-888): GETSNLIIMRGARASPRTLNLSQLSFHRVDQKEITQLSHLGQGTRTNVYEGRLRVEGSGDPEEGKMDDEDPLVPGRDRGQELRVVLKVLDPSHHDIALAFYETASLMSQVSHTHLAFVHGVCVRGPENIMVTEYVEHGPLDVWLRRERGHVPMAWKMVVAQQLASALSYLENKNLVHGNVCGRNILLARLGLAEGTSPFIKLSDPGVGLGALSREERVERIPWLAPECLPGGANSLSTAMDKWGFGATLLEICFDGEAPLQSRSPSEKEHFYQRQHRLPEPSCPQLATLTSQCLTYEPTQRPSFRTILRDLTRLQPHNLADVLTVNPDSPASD
# measurement.protocol: TYK2 JH2 Domain Binding Assay (KINOMEscan competition binding)
# assay.setup: KINOMEscan; 11-point 3-fold dilution, top concentration 30,000 nM; Kd measurements in duplicate; read-out: TYK JH2 (Kd)
Where a name gives a salt, the structure may show the parent alone.
Note to self: class labels come from recorded Kd, ranges listed here: c1 (below 200 nM), c2 (200 nM to below 1000 nM), c3 (1000 nM or more)

compound	assayed.system	class.assignment
CNC(=O)c1cnc(N2CCNCC2C)nc1Nc1ccccc1S(C)(=O)=O (centres unmarked) [Compound 69, Hydrochloride]	human TYK2 (JH2domain-pseudokinase) (Homo sapiens (Human), UniProt P29597)	c3
CCOC(=O)C1CCN(c2ncc(C(=O)NC)c(Nc3cccc(-c4ncc(F)cn4)c3OC)n2)CC1 [Compound 28]	human TYK2 (JH2domain-pseudokinase) (Homo sapiens (Human), UniProt P29597)	c1
CNC(=O)c1cnc(N2CC[C@H](C(=O)NC)C2)nc1Nc1ccc(C2CC2)nc1 [Compound 6]	human TYK2 (JH2domain-pseudokinase) (Homo sapiens (Human), UniProt P29597)	c2

Query string: Category of CNC(=O)c1cnc(N2CCNCC2C)nc1Nc1cccc(-c2ncc(F)cn2)c1OC (centres unmarked) [Compound 25, Hydrochloride] , please.
Result string: c1

Query string: Category of NC(=O)c1cnc(N2CCC(C(=O)O)CC2)nc1Nc1ccc(C2CC2)nc1 [Compound 35] , please.
Result string: c2

Query string: Category of CNC(=O)c1cnc(N2CC(C(=O)NC)C2)nc1Nc1cccc(-c2ncc(F)cn2)c1OC [Compound 49] , please.
Result string: c1

Query string: Category of COc1c(Nc2nc(N3CCC(C(=O)O)CC3)ncc2C(N)=O)cccc1-c1ncc(F)cn1 [Compound 38] , please.
Result string: c1

Query string: Category of CNC(=O)c1cnc(N2CCN(C(=O)OC(C)(C)C)CC2C)nc1Nc1ccccc1S(C)(=O)=O (centres unmarked) [Compound 18] , please.
Result string: c2

---

# assayed.system: human TYK2 (JH2domain-pseudokinase) (Homo sapiens (Human))
# measurement.protocol: TYK2 JH2 Domain Binding Assay (KINOMEscan competition binding)
# assay.setup: KINOMEscan; 11-point 3-fold dilution, top concentration 30,000 nM; Kd measurements in duplicate; read-out: TYK JH2 (Kd)
Structures can show the parent of a compound that is named as a salt.
readout.name: Kd (nM)
Expressed in nM, but write only the number.

molecule	experimental.result
COc1c(Nc2nc(N3CCCN(C(=O)OC(C)(C)C)CC3)ncc2C(N)=O)cccc1-c1ncc(F)cn1 [Compound 71]	470
CC(=O)N1CCCN(c2ncc(C(N)=O)c(Nc3ccc(C4CC4)nc3)n2)CC1 [Compound 64]	1400

Read the next record carefully.
Query string: Would you kindly share the measured Kd for CNC(=O)c1cnc(N2CCCNCC2)nc1Nc1ccc(C2CC2)nc1 [Compound 22, Hydrochloride] ?
Result string: 11000

---

Form field: Kd (one value per entry).
# assayed.system: human TYK2 (JH2domain-pseudokinase) (Homo sapiens (Human))
# measurement.protocol: TYK2 JH2 Domain Binding Assay (KINOMEscan competition binding)
# assay.setup: KINOMEscan; 11-point 3-fold dilution, top concentration 30,000 nM; Kd measurements in duplicate; read-out: TYK JH2 (Kd)
# Excerpt: Binding constants for compounds disclosed herein may be determined by the KINOMEscan® assay developed by DiscoveRx. KINOMEscan® is based on a competition binding assay that quantitatively measures the ability of a compound to compete with an immobilized, active-site directed ligand. […] The ability of the test compound to compete with the immobilized ligand is measure via quantitative PCR of the DNA tag. […]
Counter-ions that a name gives are not always drawn.
Expressed in nM, but write only the number.

Query string: Would you kindly share the measured Kd for CNC(=O)c1cnc(N2CCCNCC2)nc1Nc1cccc(-c2ncc(F)cn2)c1OC [Compound 74, Hydrochloride] ?
Result string: 800

Query string: Would you kindly share the measured Kd for CNC(=O)c1cnc(N2CCN(C(C)=O)CC2C)nc1Nc1cccc(-c2ncc(F)cn2)c1OC (centres unmarked) ?
Result string: 15

Query string: Would you kindly share the measured Kd for COc1c(Nc2nc(N3CCN(C(C)=O)CC3C)ncc2C(N)=O)cccc1-c1ncc(F)cn1 (centres unmarked) ?
Result string: 2

Query string: Would you kindly share the measured Kd for `CNC(=O)C1CN(c2ncc(C(N)=O)c(Nc3ccc(C4CC4)nc3)n2)C1` ?
Result string: 110

Query string: Would you kindly share the measured Kd for `CNC(=O)c1cnc(N2CCCN(C(C)=O)CC2)nc1Nc1cccc(-c2ncc(F)cn2)c1OC` ?
Result string: 170

Query string: Would you kindly share the measured Kd for COc1c(Nc2nc(N3CCNCC3C)ncc2C(N)=O)cccc1-c1ncc(F)cn1 (centres unmarked) ?
Result string: 49

Query string: Would you kindly share the measured Kd for `COc1ccccc1Nc1nc(N2CCC(C(=O)O)CC2)ncc1C(N)=O` ?
Result string: 2400

Query string: Would you kindly share the measured Kd for `CNC(=O)[C@H]1CCN(c2ncc(C(N)=O)c(Nc3ccc(C4CC4)nc3)n2)C1` ?
Result string: 54
